- Tested on: choroidal neovascularization in BN rats
- method-description: Laser-induced choroidal neovascularization in BN rats (FFA)
- Assay type: in vivo, rat
- test-settings: Day 28; 50 μg intravitreally once daily for 1 week (Table 53)
Where no end group is shown, it is not given here.
experimental-endpoint: CNV Incidence rate (%)

INSERT INTO measurements (substance, value_measured) VALUES
  ('mPEG-SC10k-Arg-Gly-Ala-Asp-Arg-Ala-Gly-Gly-Gly-Gly-Arg-Gly-Asp ({mPEG‑SC 10 kDa}-RGADRAGGGGRGD) [mPEG-SC10k-HM-1]', 38.81),
  ('mPEG-ALD10k-Arg-Gly-Ala-Asp-Arg-Ala-Gly-Gly-Gly-Gly-Arg-Gly-Asp ({mPEG‑ALD 10 kDa}-RGADRAGGGGRGD) [mPEG-ALD10k-HM-1]', 39.44),
  ('mPEG2-NHS10k-Arg-Gly-Ala-Asp-Arg-Ala-Gly-Gly-Gly-Gly-Arg-Gly-Asp ({mPEG2‑NHS 10 kDa}-RGADRAGGGGRGD) [mPEG2-NHS10k-HM-1]', 39.71),
  ('mPEG-bALD10k-Arg-Gly-Ala-Asp-Arg-Ala-Gly-Gly-Gly-Gly-Arg-Gly-Asp ({mPEG‑bALD 10 kDa}-RGADRAGGGGRGD) [mPEG-bALD10k-HM-1]', 39.13);
